- EXPERIMENTAL_SYSTEM: human CCR7 (Homo sapiens, UniProt P32248)
- Construct: expressed in transfected cells
- Sequence (P32248 25-378): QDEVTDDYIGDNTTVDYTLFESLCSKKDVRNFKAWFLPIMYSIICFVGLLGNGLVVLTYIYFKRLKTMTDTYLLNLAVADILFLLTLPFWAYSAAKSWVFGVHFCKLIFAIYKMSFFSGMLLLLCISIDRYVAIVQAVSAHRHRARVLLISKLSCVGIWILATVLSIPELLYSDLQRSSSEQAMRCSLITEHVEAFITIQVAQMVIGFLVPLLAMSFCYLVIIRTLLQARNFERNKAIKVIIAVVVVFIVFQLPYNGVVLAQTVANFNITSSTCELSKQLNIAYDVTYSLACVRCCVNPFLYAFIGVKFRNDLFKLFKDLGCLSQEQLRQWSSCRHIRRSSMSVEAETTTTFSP
- ASSAY_NOTES: CCR7 competition binding assay with CCL19^AF647 (flow cytometry, whole cells)
- PROTOCOL_CONDITIONS: inhibition of CCL19^AF647 binding; Mean ± SD of four independent experiments
VALUE_TYPE: IC50

API: value(readout= IC50, system= human CCR7 (Homo sapiens, UniProt P32248), query= CCOC(=O)N1CCC(Nc2c(NCCOC)c(=O)c2=O)CC1 [CS-3, reference compound] )
> 50 µM

API: value(readout= IC50, system= human CCR7 (Homo sapiens, UniProt P32248), query= COCCNc1c(Nc2cccc(C#N)c2)c(=O)c1=O [CS-2, reference compound] )
> 50 µM
